- assay-remarks: HPTS/DPX transport assay in zwitterionic EYPC vesicles
- Format: in vitro ADME
- study-conditions: read-out: EC50 (μM) effective carrier concentration to reach 50% of Ymax; carrier concentration varied, WR7 (20 μM) as common cargo; EYPC⊃HPTS/DPX vesicles, pH 7.4; Hill analysis; 10% error (SD) unless stated; n.a. = no detectable activity; d.l. = dye leakage, no determination possible
readout-label: EC50 (µM)
Report the value in µM with no unit label.

In: Suppose we examine the compound O=C(O)CCCc1ccc2ccc3cccc4ccc1c2c34 [Pyrenebutyrate (1), pyrenebutyrate, reference compound] ; what EC50 value has been reported?
Out: 103

---

Reported Et values follow for various compounds
- assay-remarks: HPTS/DPX transport assay in zwitterionic EYPC vesicles
- Assay type: in vitro ADME
- Design: key: Et = Ymax × (pEC50/ft); pEC50 = −log EC50
- study-conditions: Fig.2 d; per analyte (cargo)
- Experimental: The well-established HPTS/DPX assay, which uses 8-hydroxypyrene-1,3,6-trisulfonate (HPTS) and p-xylene-bis-pyridinium (DPX), was implemented to monitor peptide-transport activation (Fig. 2a). […] A surfactant (Triton X-100) was added at the end of the experiment (t = 600 s) to release all vesicle content and normalize the fluorescence intensity data. […]
Answer using only a numeral; do not append any unit.

In [3]: df
Out[3]:
                                   compound  numeric_result
0  CC(=O)OCC[N+](C)(C)C [Acetylcholine, acetylcholine]               7
1  Cc1ncc(C[n+]2csc(CCO)c2C)c(N)n1 [Vitamin B1]             6.5
2  N[C@@H](Cc1ccccc1)C(=O)O [Phenylalanine]             0.5

In: Suppose we examine the compound CNC(=C[N+](=O)[O-])NCCSCc1ccc(CN(C)C)o1 [Ranitidine, reference compound] ; what Et value has been reported?
Out: 3.9

These data points were gathered from paper PMC8942850.
